Just for reference, a protein production outcome set (Wang et al. 2014) is where these values come from.

# Test protocol: label from the status in PepcDB records
Readout label: protein production

MMKKLTALFVASTLALGAANLAHAAETTTAPSDSKPMMMHHKGGPGQHDMMFKGLNLTDAQKQQIRDIMKSQRENMKRPSLEERRAMHDLIASDTFDKAKAEAQIDKMEAQHKAMALSRLETQNKIYNILTPEQKKQFNANFEKHLTERNAPAGKMPAPAE = failed
MLNSDIYLKESLYDLLSLWRTPAFFLPAMLFPLVFYVFFGIVFNFSAAQGEYMLVSYACFGMMGPALFNYATAVASDRAQGWLTLKRISPMPLSAYVVAKFFSSLVFAACIALMLFITAALFADVQLLLWQWATLFTVLLIGTLPFALIGLLMGLCLSDKAAPAVVNLVYLPMAFLSGLWVPIQFLPDTVRYIAYGLPSYHYSQLAHAVIGTNQGHNLWLHGLYLVAFCGVLIAVIYWRYQRLSR = failed

----------
# Test protocol: label from the status in PepcDB records
Readout label: protein production

MKGREMKIVEFMKDKMVYIVFTLIFSSIYAGVHHRSIFLSLKVTLPIALFMMLFQPMVFMDIKKAFTTRTRVKTKYLILLTFFYTLLFPVLTWIFLKFWLRMMPNTEPQLLAGMVLIGLAPLPSSSPAFTNLAGGRFQLTLVGVMWTFLLSIFVMPFYAKLILHTIIQVPIEMLLKSLILYIITPLIIGQLTKYIILHWKGTDALISLKKPLIGISLIGMYWMIVVVFGINAKVIVERPELILIGAITMNIYFLLRAAIAYFIGKALDFPFEQNISLVYSTGSNMTLATAMAIGTFGPLAAVGTALGGPFSDMLLMIFFVKLFTLIRKKYIHNERKSITGG = failed
DCLLPIVAAPMAGGPTTVALAQAVSGVGGFPFLAGGYKSVEALATEIAVLRASGGNFGVNLFVPSPDMVDAEAFRIYAAKLQSEALPYGLRLDPLPVMGDDDGWPDKLALLLNDPVPVVSFTFGLPAVRDIAALRCAGSRVLASVTLPAEAQAAMEAGVDGLVVQGPDAGGHSATYDPGRPFTPLKTVSLVRRVCAVSSLPVIAAGGVDGPVMVRALLQAGAAAVAIGTLLLRTKESGATQVHKDALANPAYTETVITHAFTGRPARTLRNGFVNRYHASAPLGYPAIHHLTRPLRQAAASAGDADVLHLWAGTGYRQAMDGSAVDVIQ = failed

----------
# Test protocol: label from the status in PepcDB records
Readout label: protein production

Examples with their reported protein production follow.
MLKSVNLPVCHSLRNHLAVSSISTTPPSLIIPLLSPIFLRISSSSSNSVILNFSVKASFLVSKILLINLRAGFTGSLILSAGKPPFITSSSKSSIGTTPGVSKSQIFLVSLIICLPFVYPGIGAVPTECFPLSTFIIVLFPTFGYPINATLTLSLLIIFAIFFSSLLRIPVPFLSLAEIKTTGISLFLLYSSAHSLGTKSALFITNKSFLPLSKTILSSFLFLVPMGSLASTTSTTMSASSITSFTIAQAFFCFIPHHRYFKDYGTPWGIRGARVGTLDVGLILGSKPYFFWLHAFSERYYVG = failed
MMNDYLNFLDGRVSVRRFDPDAVLPNDLIKDMLEHASYAPSGNNFQPWRVVVVKNKNKQEDLKKLAALQPQVATASAVFLLFGDENAYDLTWWQEFHVQKGIITKDEAAARAERIRQYFDLHPEDKETQGLRLDVGLFAMNLMQVVRVYGYDSVPMRGVDFDAIKTYLDMPNGWEPILMLPVGKALQAGNPHVRKSVAEFAEIIE = not failed
MISKHQAVKKIFDQISDKYDLIDTIISLGLDQRWRRSLISNLKLMPGLQCLDCGAGSGKVTELIMESCDSCSVTALDITDSMFNPELTKRCKFVVSPAESLPFSDETFDRVSSAFLTRNLADVDKYFSEVYRVLKPGGIFVNLDIFNPTKPVFSQFFSLYFYRMVPFFGNHATHSRNYSYLANSVKFFYSPFILSKKLESKGFIVEPKDLFFGSVFMHIAQKKLEHHHHHH = not failed
MADSRQAQGPGKSVLGIGQRIVTIIVEMVETRLRLAVVELEEEKANLFQLLLMVGLTMLFAAFGLMSLMVLVIWAIDPQYRLNAMIATTVVLLVLALIGGIWTLRKARQSTLLRHTRHELANDRQILEDDQS = failed
MAASLSEGVPETEDRKRPQFGNRFLSDPARVFHHNAWDNVKWSEEQAAAAERKVQENSSQLVCPEKQADYEVNAHKYWDDFYKVHENGFFKDRHWLFTEFPELAPSHDHLVNLHLEKQKNEVSKPRSSEDGPGLAAEQHKRPCTSHGCETRVPPVEEPVTQKLTHLEICADDFPGSSATYRILEVGCGVGNTVFPILQTNNNPDLFVYCCDFSATAIELVKTNSEYDPSRCFAFVHDLCDEDQSYPMPKDSLDVIVLIFVLSAIVPDKMQKAISKLSRLLKPGGVMLLRDYGRYDMAQLRFKKGQCLSGNFYVRGDGTRVYFFTQDELDTLFTAAGLEKVQNVVDRRLQVNRGKQLTMYRVWIQCKYSKPLVPSASQHVPTPHTTXVLRIWGFC = failed

Endpoint output: protein production of `MTTRRLALFDLDHTLLPLDSDYQWADFLARTGRAGDPAEARRRNDDLMERYNRGELTAEQAAEFMLGLLAAHSPVELAAWHEEFMRDVIRPSLTVQAVDVVRGHLAAGDLCALVTATNSFVTAPIARAFGVQHLIATDPEYRDGRYTGRIEGTPSFREGKVVRVNQWLAGMGLALGDFAESYFYSDSVNDVPLLEAVTRPIAANPSPGLREIAQARGWQVIDLFDHLEDAKS` . Value?
not failed
